meta.source: patent EP0590919A1

system: Haloperidol-Induced Catalepsy; test: Effect on haloperidol-induced catalepsy; format: in vivo, mice; conditions: of five mice, catalepsy score not more than 4 points; 10 mg/kg orally
Give measured Number of the Animals Showing Remission for each item. Keep answers brief.
Lab note: write the figure by itself, no unit.

Prompt: Query: Number of the Animals Showing Remission; subject: `CCn1c(=O)c2[nH]c(/C=C/c3cc(OC)cc(OC)c3)nc2n(CC)c1=O`
Response: 5

Prompt: Query: Number of the Animals Showing Remission; subject: `CCn1c(=O)c2c(nc(/C=C/c3ccc(F)cc3)n2C)n(CC)c1=O`
Response: 4

Prompt: Query: Number of the Animals Showing Remission; subject: `CCn1c(=O)c2c(nc(/C=C/c3ccc(OC)c(OC)c3OC)n2C)n(CC)c1=O`
Response: 5

Prompt: Query: Number of the Animals Showing Remission; subject: `CCn1c(=O)c2c(nc(/C=C/c3cc(C(F)(F)F)cc(C(F)(F)F)c3)n2C)n(CC)c1=O`
Response: 3

Prompt: Query: Number of the Animals Showing Remission; subject: `CCn1c(=O)c2[nH]c(/C=C/c3cccc(OC)c3[N+](=O)[O-])nc2n(CC)c1=O`
Response: 3

Prompt: Query: Number of the Animals Showing Remission; subject: `CCn1c(=O)c2c(nc(/C=C/c3ccc4c(c3)OCO4)n2C)n(CC)c1=O`
Response: 5
